# targetDesc: LK35.2-hPD-L1 cells / PE-labeled PD-1-Ig (Homo sapiens, UniProt Q9NZQ7)
# Construct: expressed in transfected cells; host or cells: LK35.2 mouse B cell line
# Sequence (Q9NZQ7 19-290): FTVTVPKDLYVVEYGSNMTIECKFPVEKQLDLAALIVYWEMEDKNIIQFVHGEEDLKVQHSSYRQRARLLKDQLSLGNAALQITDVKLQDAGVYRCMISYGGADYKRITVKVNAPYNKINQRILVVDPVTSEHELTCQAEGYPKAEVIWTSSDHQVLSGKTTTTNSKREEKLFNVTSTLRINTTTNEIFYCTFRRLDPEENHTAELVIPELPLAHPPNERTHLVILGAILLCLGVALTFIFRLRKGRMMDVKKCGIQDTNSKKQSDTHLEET
# measurementNotes: LK35.2-hPD-L1 cell binding high-content screening assay
# Format: cell-based
# runParameters: cell binding assay, cell line not given; cluster symbol; read-out: CBA IC50 cluster
Positions of bridges follow the written chain, without caps; N, C: chain ends. Non-standard residues stand in square brackets, D forms with d. Residues, ends and D or L forms follow the SMILES beside them. ξ: configuration not given here. Phe(4-CH2NH2) = NCc1ccc(C[C@H](N)C(=O)O)cc1; Bta = N[C@@H](Cc1csc2ccccc12)C(=O)O; Hyp = O=C(O)[C@@H]1C[C@@H](O)CN1; NMeF = CN[C@@H](Cc1ccccc1)C(=O)O; NMeNle = CCCC[C@H](NC)C(=O)O; NMeM = CN[C@@H](CCSC)C(=O)O; NMeA = CN[C@@H](C)C(=O)O; Dap = NC[C@H](N)C(=O)O; ξC = NC(CS)C(=O)O; Sar = CNCC(=O)O
measurementKind: IC50

Consider the following illustrative entries.
# molecule, result
measured = [
    ("CCCC[C@H]1C(=O)N(C)[C@@H](CCSC)C(=O)N[C@@H](CCCNC(=N)N)C(=O)NC(C(=O)NCC(N)=O)CSCC(=O)N[C@@H](Cc2ccc(O)cc2)C(=O)N(C)[C@@H](C)C(=O)N[C@@H](CC(N)=O)C(=O)N2CCC[C@H]2C(=O)N[C@@H](Cc2cnc[nH]2)C(=O)N[C@@H](CO)C(=O)N2C[C@H](O)C[C@H]2C(=O)N[C@@H](Cc2c[nH]c3ccccc23)C(=O)N[C@@H](CO)C(=O)N[C@@H](Cc2c[nH]c3ccccc23)C(=O)N1C (stereo partly shown) [Example 9107] ({CH2CO}-Y[NMeA]NPHS[Hyp]WSW[NMeNle][NMeM]R[ξC]G-NH2; thioether N-14)", "4.78 to 72.9 nM"),
    ("CCCC[C@H]1C(=O)N(C)[C@@H](CCCC)C(=O)N[C@@H](CN)C(=O)N[C@H](C(=O)NCC(N)=O)CSCC(=O)N[C@@H](Cc2ccc(O)cc2)C(=O)N(C)[C@@H](C)C(=O)N[C@@H](CC(N)=O)C(=O)N2CCC[C@H]2C(=O)N[C@@H](CN)C(=O)N[C@@H](CCC(=O)O)C(=O)N2C[C@H](O)C[C@H]2C(=O)N[C@@H](Cc2c[nH]c3ccccc23)C(=O)N[C@@H](CO)C(=O)N[C@@H](Cc2c[nH]c3ccccc23)C(=O)N1C [Example 5061] ({CH2CO}-Y[NMeA]NP[Dap]E[Hyp]WSW[NMeNle][NMeNle][Dap]CG-NH2; thioether N-14)", "0.158 to 4.71 nM"),
    ("CCCC[C@H]1C(=O)N(C)[C@@H](CCCC)C(=O)N[C@@H](CCCNC(=N)N)C(=O)NC(C(=O)NCC(N)=O)CSCC(=O)N[C@@H](Cc2ccc(O)cc2)C(=O)N(C)[C@@H](C)C(=O)N[C@@H](CC(N)=O)C(=O)N2CCC[C@H]2C(=O)N[C@@H](Cc2cnc[nH]2)C(=O)N[C@@H](CO)C(=O)N2C[C@H](O)C[C@H]2C(=O)N[C@@H](Cc2c[nH]c3ccccc23)C(=O)N[C@@H](CO)C(=O)N[C@@H](Cc2csc3ccccc23)C(=O)N1C (stereo partly shown) [Example 9070] ({CH2CO}-Y[NMeA]NPHS[Hyp]WS[Bta][NMeNle][NMeNle]R[ξC]G-NH2; thioether N-14)", "0.158 to 4.71 nM"),
]

Kindly consider the entry below.
// field: IC50; key: CCCC[C@H]1C(=O)N(C)CC(=O)N[C@@H](CC(=O)O)C(=O)N[C@@H](C(C)C)C(=O)N[C@@H](Cc2ccc(CN)cc2)C(=O)N[C@@H](Cc2ccc(O)cc2)C(=O)N(C)CC(=O)N[C@@H](Cc2c[nH]c3ccccc23)C(=O)N[C@@H](Cc2ccc(O)cc2)C(=O)N[C@@H](CC(C)C)C(=O)N[C@H](C(=O)NCC(N)=O)CSCC(=O)N[C@@H](Cc2ccccc2)C(=O)N(C)[C@@H](Cc2ccccc2)C(=O)N1C [Example 3523] ({CH2CO}-F[NMeF][NMeNle][Sar]DV[Phe(4-CH2NH2)]Y[Sar]WYLCG-NH2; thioether N-13) ; value = > 74.3 nM
